- target or system: hMETTL6 (Homo sapiens, UniProt Q8TCB7, C93S)
- Sequence (Q8TCB7 1-284 C93S): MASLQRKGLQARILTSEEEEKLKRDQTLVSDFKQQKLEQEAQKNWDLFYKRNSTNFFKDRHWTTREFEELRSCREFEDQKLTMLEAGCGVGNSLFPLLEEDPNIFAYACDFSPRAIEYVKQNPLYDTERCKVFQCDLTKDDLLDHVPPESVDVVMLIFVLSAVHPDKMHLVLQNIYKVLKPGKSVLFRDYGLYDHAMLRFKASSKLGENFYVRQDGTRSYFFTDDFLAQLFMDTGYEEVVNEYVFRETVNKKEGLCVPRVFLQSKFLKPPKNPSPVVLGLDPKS
- assay method text: isothermal titration calorimetry

>  <molecule>
C[S+](CC[C@H](N)C(=O)O)C[C@H]1O[C@@H](n2cnc3c(N)ncnc32)[C@H](O)[C@@H]1O (stereo partly shown) [SAM]

>  <target or system>
hMETTL6 (Homo sapiens, UniProt Q8TCB7, C93S)

>  <Kd>
2250 nM

$$$$
